# Tested on: HIV-2 protease
# test_details: HIV protease cleavage of nonapeptide (HPLC)
# Format: biochemical
# condition_info: 0.5 μl of 10 μg/μl inhibitor in DMSO per 10 μl reaction; pH 6.5, room temperature; pentapeptide product relative to DMSO control; sampled at ca. 16 and 40 hr (time not given)
Please provide measured Percent Control Cleavage of Nonapeptide HIV-1 Cleavage Site Fragment for the entries that follow.

Task: What does the record list as Percent Control Cleavage of Nonapeptide HIV-1 Cleavage Site Fragment for OC[C@@H]1O[C@@H]1COCc1ccccc1 [Example 13] ?
Result: 81%

Task: What does the record list as Percent Control Cleavage of Nonapeptide HIV-1 Cleavage Site Fragment for OC[C@H]1O[C@H]1COCc1ccccc1 [Example 14] ?
Result: 78%

Task: What does the record list as Percent Control Cleavage of Nonapeptide HIV-1 Cleavage Site Fragment for CCCCCCCCCCC[C@H]1O[C@@H]1CO [Example 32, (2R-trans)-3-Undecyloxirane Methanol] ?
Result: 98%

Task: What does the record list as Percent Control Cleavage of Nonapeptide HIV-1 Cleavage Site Fragment for CCCCCCCCC[C@H]1O[C@@H]1C(=O)O [Example 36, (2S-trans)-3-Nonyloxiranecarboxylic acid] ?
Result: 12%

Task: What does the record list as Percent Control Cleavage of Nonapeptide HIV-1 Cleavage Site Fragment for CCCCCCC[C@@H]1O[C@@H]1C(=O)O [Example 38, (2S-cis)-3-Heptyloxiranecarboxylic Acid] ?
Result: 105%
